Biological target: Neuropeptide Y receptor type 1 (Homo sapiens)
Sequence (P25929 whole entry): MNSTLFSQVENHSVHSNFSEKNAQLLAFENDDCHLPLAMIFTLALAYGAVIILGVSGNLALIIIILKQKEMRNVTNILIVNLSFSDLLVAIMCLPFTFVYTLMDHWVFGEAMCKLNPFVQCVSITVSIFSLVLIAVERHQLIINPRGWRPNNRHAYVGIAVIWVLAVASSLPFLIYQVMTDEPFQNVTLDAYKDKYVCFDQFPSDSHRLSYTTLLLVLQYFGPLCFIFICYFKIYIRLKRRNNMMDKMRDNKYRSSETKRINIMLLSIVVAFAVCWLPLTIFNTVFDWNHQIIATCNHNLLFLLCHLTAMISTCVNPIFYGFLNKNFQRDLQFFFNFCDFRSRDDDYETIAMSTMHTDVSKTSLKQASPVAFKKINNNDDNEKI
Test: Displacement of [3H]UR-MK299 from human Y1R expressed in SK-N-MC cells
Format: cell-based
Conditions: sk-n-mc; read-out: Ki
Measured Ki, listed per entry.

CCC(=O)N[C@@H]1CC(=O)N[C@@H](CCCNC(=N)N)C(=O)N[C@@H](Cc2ccc(O)cc2)C(=O)N[C@H](C(=O)N[C@@H](CC(C)C)C(=O)N[C@@H](CCCNC(=N)N)C(=O)N[C@@H](Cc2ccc(O)cc2)C(N)=O)CCCN/C(N)=N/C(=O)NCCCCNC1=O    > 1000 nM

# next compound below
IN: Looking for the measured Ki of CC(C)C[C@H](NC(=O)[C@@H]1CCCN/C(N)=N/C(=O)NCCCCNC(=O)[C@H](N)CC(=O)N[C@@H](CCCNC(=N)N)C(=O)N[C@@H](Cc2ccc(O)cc2)C(=O)N1)C(=O)N[C@@H](CCCNC(=N)N)C(=O)N[C@@H](Cc1ccc(O)cc1)C(N)=O , can you help?
OUT: > 1000 nM

====

Measured pKi, listed per entry.
biological target: Neuropeptide Y receptor type 2 (Homo sapiens, UniProt P49146); assay: Displacement of [3H]propionyl-pNPY from human Y2R expressed in CHO cells; assay type: cell-based; settings: read-out: Ki
Sequence (P49146 whole entry): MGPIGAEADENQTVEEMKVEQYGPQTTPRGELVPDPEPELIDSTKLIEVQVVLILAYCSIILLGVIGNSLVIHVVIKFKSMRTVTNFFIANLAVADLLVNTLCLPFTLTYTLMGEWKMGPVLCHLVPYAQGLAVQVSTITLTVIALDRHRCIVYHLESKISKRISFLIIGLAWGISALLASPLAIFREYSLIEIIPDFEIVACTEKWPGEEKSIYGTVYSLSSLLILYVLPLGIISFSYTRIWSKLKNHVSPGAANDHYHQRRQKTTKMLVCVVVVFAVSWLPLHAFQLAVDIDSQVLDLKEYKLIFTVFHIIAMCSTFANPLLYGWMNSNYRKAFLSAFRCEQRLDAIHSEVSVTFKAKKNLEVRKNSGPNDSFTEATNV
pKi: −log10 of the molar value. Starred links: 1 amine or outer side, 2 acyl side, 3 side chain; linkers in the order of their positions; H or OH if unused. Positions of bridges follow the written chain, without caps; N, C: chain ends. Non-standard residues stand in square brackets, D forms with d. Residues, ends and D or L forms follow the SMILES beside them. *: point of attachment. Arg(Nω-CO) = N/C(=N\C(=O)[*:3])NCCC[C@H](N[*:1])C(=O)[*:2]; Ethylenediamine = C(CN[*:2])N[*:1]; Propionyl = CCC(=O)*

Solved cases (3 shown):
CCC(=O)N[C@@H]1CC(=O)NCCCCNC(=O)/N=C(\N)NCCC[C@@H](C(=O)N[C@@H](CC(C)C)C(=O)N[C@@H](CCCNC(=N)N)C(=O)N[C@@H](Cc2ccc(O)cc2)C(N)=O)NC(=O)[C@H](Cc2ccc(O)cc2)NC(=O)[C@H](CCCNC(=N)N)NC1=O    < 5.52
CCC(=O)NCCCC(=O)N[C@@H]1CC(=O)N[C@@H](CCCNC(=N)N)C(=O)N[C@@H](Cc2ccc(O)cc2)C(=O)N[C@H](C(=O)N[C@@H](CC(C)C)C(=O)N[C@@H](CCCNC(=N)N)C(=O)N[C@@H](Cc2ccc(O)cc2)C(N)=O)CCCN/C(N)=N/C(=O)NCCCCNC1=O.O=C(O)C(F)(F)F.O=C(O)C(F)(F)F.O=C(O)C(F)(F)F    < 5.52
CC(C)C[C@H](NC(=O)[C@@H]1CCCN/C(N)=N/C(=O)NCCCCNC(=O)[C@H](NC(=O)CCCN)CC(=O)N[C@@H](CCCNC(=N)N)C(=O)N[C@@H](Cc2ccc(O)cc2)C(=O)N1)C(=O)N[C@@H](CCCNC(=N)N)C(=O)N[C@@H](Cc1ccc(O)cc1)C(N)=O    < 6.02

# next compound below
IN: Looking for the measured pKi of CCC(=O)N[C@H]1CCC(=O)NCCNC(=O)/N=C(\N)NCCC[C@@H](C(=O)N[C@@H](CC(C)C)C(=O)N[C@@H](CCCNC(=N)N)C(=O)N[C@@H](Cc2ccc(O)cc2)C(N)=O)NC(=O)[C@H](Cc2ccc(O)cc2)NC(=O)[C@H](CCCNC(=N)N)NC1=O (Propionyl-ERY[Arg(Nω-CO)]LRY-NH2; linker 1-4 via Ethylenediamine) , can you help?
OUT: < 5.52

====

Measured Ki, listed per entry.
target: Neuropeptide Y receptor type 4 (Homo sapiens, UniProt P50391); assay: Displacement of [3H]UR-KK200 from human Y4R expressed in CHO cells co-expressing Gqi5-mtAEQ; format: cell-based; conditions: read-out: pKi (converted)
Sequence (P50391 whole entry): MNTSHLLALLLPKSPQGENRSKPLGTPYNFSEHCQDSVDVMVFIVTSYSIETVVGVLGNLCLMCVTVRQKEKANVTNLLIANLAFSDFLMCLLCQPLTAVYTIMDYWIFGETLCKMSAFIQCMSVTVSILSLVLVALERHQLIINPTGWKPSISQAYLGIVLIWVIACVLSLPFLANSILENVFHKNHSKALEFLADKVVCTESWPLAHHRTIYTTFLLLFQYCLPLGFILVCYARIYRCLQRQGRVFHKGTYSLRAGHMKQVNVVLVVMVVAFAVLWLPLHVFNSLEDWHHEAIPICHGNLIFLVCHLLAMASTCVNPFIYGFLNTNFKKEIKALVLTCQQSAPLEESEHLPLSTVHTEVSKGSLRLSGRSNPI
Give the value in nM but do not write nM after it.

CCC(=O)NCCCC(=O)N[C@@H]1CC(=O)N[C@@H](CCCNC(=N)N)C(=O)N[C@@H](Cc2ccc(O)cc2)C(=O)N[C@H](C(=O)N[C@@H](CC(C)C)C(=O)N[C@@H](CCCNC(=N)N)C(=O)N[C@@H](Cc2ccc(O)cc2)C(N)=O)CCCN/C(N)=N/C(=O)NCCCCNC1=O.O=C(O)C(F)(F)F.O=C(O)C(F)(F)F.O=C(O)C(F)(F)F    0.0316

IN: Looking for the measured Ki of CC(C)C[C@H](NC(=O)[C@@H]1CCCN/C(N)=N/C(=O)NCCCCNC(=O)[C@@H](N)CC(=O)N[C@@H](CCCNC(=N)N)C(=O)N[C@@H](Cc2ccc(O)cc2)C(=O)N1)C(=O)N[C@@H](CCCNC(=N)N)C(=O)N[C@@H](Cc1ccc(O)cc1)C(N)=O , can you help?
OUT: 0.0245

IN: Try the compound CCC(=O)N[C@@H]1CC(=O)NCCCCNC(=O)/N=C(\N)NCCC[C@@H](C(=O)N[C@@H](CC(C)C)C(=O)N[C@@H](CCCNC(=N)N)C(=O)N[C@@H](Cc2ccc(O)cc2)C(N)=O)NC(=O)[C@H](Cc2ccc(O)cc2)NC(=O)[C@H](CCCNC(=N)N)NC1=O
OUT: 0.11

IN: Try the compound CC(C)C[C@H](NC(=O)[C@@H]1CCCN/C(N)=N/C(=O)NCCCCNC(=O)[C@H](NC(=O)CCCN)CC(=O)N[C@@H](CCCNC(=N)N)C(=O)N[C@@H](Cc2ccc(O)cc2)C(=O)N1)C(=O)N[C@@H](CCCNC(=N)N)C(=O)N[C@@H](Cc1ccc(O)cc1)C(N)=O
OUT: 0.0912

====

biological target: Neuropeptide Y receptor type 4 (Homo sapiens, UniProt P50391); test: Displacement of [3H]-(9S,12S,15S,19R,E)-4-amino-N-((S)-1-(((S)-1-(((S)-1-amino-3-(4-hydroxyphenyl)-1-oxopropan-2-yl)amino)-5-guanidino-1-oxopentan-2-yl)amino)-4-methyl-1-oxopentan-2-yl)-15-(3-guanidinopropyl)-12-(4-hydroxybenzyl)-2,11,14,17,20-pentaoxo-19-(4-(propanamido-2,3-t2)butanamido)-1,3,5,10,13,16,21-heptaazacyclopentacos-3-ene-9-carboxamide from human Y4R expressed in CHO cells coexpressing Gqi5-mtAEQ under hypotonic sodium free buffer condition; format: cell-based; conditions: read-out: Ki
measured-endpoint: pKi
Worth noting: pKi values are minus log10 of concentrations stated in mol/L.

Solved cases (3 shown):
CC(C)C[C@H](NC(=O)[C@@H]1CCCNC(=N)NC(=O)NCCCCNC(=O)CCC(=O)N[C@@H](CCCNC(=N)N)C(=O)N[C@@H](Cc2ccc(O)cc2)C(=O)N1)C(=O)N[C@@H](CCCNC(=N)N)C(=O)N[C@@H](Cc1ccc(O)cc1)C(N)=O    10.96
CCC(=O)NCCCC(=O)N[C@@H]1CC(=O)N[C@@H](CCCNC(=N)N)C(=O)N[C@@H](Cc2ccc(O)cc2)C(=O)N[C@H](C(=O)N[C@@H](CC(C)C)C(=O)N[C@@H](CCCNC(=N)N)C(=O)N[C@@H](Cc2ccc(O)cc2)C(N)=O)CCCN/C(N)=N/C(=O)NCCCCNC1=O.O=C(O)C(F)(F)F.O=C(O)C(F)(F)F.O=C(O)C(F)(F)F    11.00
[3H]CC([3H])C(=O)N[C@H](CCCC[C@@H](N)C(=O)N[C@@H](Cc1ccc(O)cc1)C(=O)N[C@@H](CCCNC(=N)N)C(=O)N[C@@H](CC(C)C)C(=O)N[C@@H](CCCNC(=N)N)C(=O)N[C@@H](Cc1ccc(O)cc1)C(N)=O)C(=O)N[C@@H](Cc1ccc(O)cc1)C(=O)N[C@@H](CCCNC(=N)N)C(=O)N[C@@H](CC(C)C)C(=O)N[C@@H](CCCNC(=N)N)C(=O)N[C@@H](Cc1ccc(O)cc1)C(N)=O (some centres undefined)    9.41

IN: Looking for the measured pKi of [3H]CC([3H])C(=O)NCCCCNC(=O)/N=C(\N)NCCCC[C@H](NC(=O)[C@H](Cc1ccc(O)cc1)NC(=O)CCCCCCC(=O)N[C@@H](Cc1ccc(O)cc1)C(=O)N[C@@H](CCCNC(=N)N)C(=O)N[C@@H](CC(C)C)C(=O)N[C@@H](CCCNC(=N)N)C(=O)N[C@@H](Cc1ccc(O)cc1)C(N)=O)C(=O)N[C@@H](CC(C)C)C(=O)N[C@@H](CCCNC(=N)N)C(=O)N[C@@H](Cc1ccc(O)cc1)C(N)=O (some centres undefined) , can you help?
OUT: 9.39
